- Experimental Protocol: probe aNOTCH2 binding on compound microarray – biochemical, small-molecule microarray, 635/667 nm fluorescence, primary screen (AID 1121);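 further: score merges feature fluorescence read at 667 nm with its signal to noise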
- Experimental Conditions: higher = more signal; small-molecule microarray, probe aNOTCH2, fluorescence unless noted
Threshold rule: composite z-score greater than or equal to -0.09 is rule met; below that, rule not met.

Below are worked cases with known answers.
Assess whether reported composite z-score for CCCc1cc2c(n1CCO)C(C)C1CN(C(=O)c3ccccc3)C(C)(C(=O)OC)C21 (stereo unspecified) sits at -0.09 or higher.
rule met

Assess whether reported composite z-score for CN1CCC(c2ccc(CO)cc2)=CC1C1CC1 (stereo unspecified) sits at -0.09 or higher.
rule not met

Now look at this one.
Assess whether reported composite z-score for OCc1ccc(C2=CC(C3CC3)N(Cc3sc4ccccc4c3Cl)CC2)cc1 (stereo unspecified) sits at -0.09 or higher.
rule not met

Cited source: PubChem BioAssay
